System: Leishmania donovani
Assay: Leishmania intramacrophage assay
Format: functional, organism-based
Set-up: scale not given: in the data most compounds retested in dose-response had high values
Details: 30.3 µM; […]
In all, about 69,000 compounds went through this assay and about 1,000 (1.4%) showed an effect of 50% or more. Many of the other results were omitted from the sample, so strong results are more common in it than they were.
Threshold 10%. Percent Effect below it: Yes. Percent Effect at it or above: No.

> print(dat)
                                    compound  label
 1  Cc1nnc(NC(=O)CN2CCCC(c3ccn[nH]3)C2)s1 (stereo not given)    Yes
 2  O=C1C(CS(=O)(=O)Nc2ccc(Br)cc2)=NC(=O)n2cccc21    Yes
 3  Cc1nc(N2C[C@@H](CN3CCCN(C)CC3)[C@@H](CO)C2)c2ccsc2n1    Yes
 4  Cl.O=C(Nc1cc(C(F)(F)F)c[nH]c1=O)C1CCCCN1 (stereo not given)     No
 5  Cc1cccc(C(=O)N2C[C@@H]3[C@H](CC(=O)Nc4cccnc4)[C@@H]3C2)n1.O=C(O)C(F)(F)F.O=C(O)C(F)(F)F    Yes
 6  O=C(Nc1cc(C(F)(F)F)c[nH]c1=O)C1CCCO1 (stereo not given)     No
 7  CO[C@H]1[C@@H]2CC[C@H]1CN(c1nc(C)nc3sccc13)C2     No
 8  Cc1noc(C)c1CN1C(=O)[C@H]2CC[C@@H]1CN(Cc1ccc(Cl)cc1)C2     No
 9         Cc1ccc(OCC(=O)Nc2ncccc2OC(F)F)cc1     No
10  CN1CCN(CC2(O)CCCN(S(=O)(=O)c3cn[nH]c3)CC2)CC1 (stereo not given)    Yes

* * *

Tested on: Leishmania donovani
Experiment: Leishmania intramacrophage assay
Assay type: functional, organism-based
Design: scale not given: in the data most compounds retested in dose-response had high values
Conditions: 30.3 µM; […]
In all, about 69,000 compounds went through this assay and about 1,000 (1.4%) showed an effect of 50% or more. The full list was thinned out, with strong results kept by preference.
Threshold 40%. Percent Effect below it: class 1. Percent Effect at it or above: class 0.

> print(dat)
                                    molecule    label
 1   Cc1nc(S(=O)(=O)CCn2cccn2)n(C2CCCCC2)c1C  class 1
 2  CCc1sc(-c2nnc(CNC(C)Cn3cccn3)o2)cc1C (configuration not stated)  class 1
 3  COc1ccc(CCCN(C)C(=O)c2cc(Cl)c[nH]2)cc1OC  class 1
 4  COc1ccc(CCN(C)CCS(=O)(=O)c2ccc(Cl)cc2)cc1OC  class 1
 5  Cc1ncc(CNC(CCO)C2CCCCC2)s1 (configuration not stated)  class 1
 6  Cc1ccc(CN2C[C@@H]3[C@@H](C(=O)NCC(C)C)CCS(=O)(=O)[C@@H]3C2)cc1.O=C(O)C(F)(F)F  class 1
 7   CN(CCc1cccc2ccccc12)Cc1nc(N)nc(N(C)C)n1  class 0
 8  O=C(O)C(F)(F)F.O=C(O)C(F)(F)F.O=c1ccc2c(n1Cc1cccnc1)CCN(Cc1ccoc1)CC2  class 0
 9  O=C(CCn1c(=O)oc2ccccc21)NCC(O)c1ccc(F)c(F)c1 (configuration not stated)  class 0
10  CCCc1n[nH]c(C2CN(C(=O)CCCn3ccnc3C)CCO2)n1 (configuration not stated)  class 0
11    CN(Cc1nc(N)nc(N(C)C)n1)Cc1cccc2ccccc12  class 1
12  CCCc1n[nH]c(C2CN(C(=O)CCCn3ccnc3)CCO2)n1 (configuration not stated)  class 0
13  CCN(CCS(=O)(=O)c1ccc(Cl)cc1)Cc1ccc(OC)c(OC)c1  class 0
14  CN(CC(=O)Nc1cccc(F)c1)Cc1nc(N)nc(N(C)C)n1  class 1
15   CCC(=O)N1CCC(c2nc(C)c3c(n2)N(C)CCC3)CC1  class 1
16  CN1C[C@H]2CN(Cc3cccc(OC(F)(F)F)c3)CCN2C1=O  class 1
17  CN(C)C(=O)C1(c2cnccn2)CCCN1C(=O)Cc1ccsc1 (configuration not stated)  class 1
18  Cc1cc(C)c(CNC(=O)NCC2Cc3ccccc3O2)c(=O)[nH]1 (configuration not stated)  class 1
19             Cc1c(Cl)ccc2ccc(NC(CO)CO)nc12  class 1
20  COCCN1C[C@H]2CC[C@@H]1CN(Cc1cc(=O)c3cc(C)ccc3[nH]1)C2  class 1
21      CCn1nc(C)c2ccn(CC(=O)NCCCOC)c(=O)c21  class 1
22  COc1ccc(CN(C)CCS(=O)(=O)c2ccc(Cl)cc2)cc1OC  class 0
